- target-desc: T1, Recombinant purified human PD-1 protein, residues Leu25-Thr168, with a C-terminal 6-His tag (human, UniProt Q15116)
- T1 construct: programmed cell death protein 1 (PD-1), human, residues Leu25-Thr168; monomer; the results call it wild-type or full length PD-1 against the P35-Q167 fragment; also called PD-1-His; PD-1 His-tagged monomer; source: bought: R&D Systems; not shown: His6, C-terminal, kept
- T1 sequence (Q15116 25-168): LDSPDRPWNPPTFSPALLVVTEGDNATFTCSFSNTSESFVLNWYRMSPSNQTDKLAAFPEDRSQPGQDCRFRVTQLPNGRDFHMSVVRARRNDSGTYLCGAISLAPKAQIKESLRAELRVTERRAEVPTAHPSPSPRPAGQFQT
- method-description: SPR; Biacore 8K, 3D-hydrogel chips (average of CM5 and CMD-200M); mAbs captured on goat anti-human IgG Fc; PD-1 His-tagged monomer analyte 0.4-100 nM; 25 C; HBS-EP+ pH 7.4; 1:1 Langmuir fit with mass transport; apparent
- conditions: both partners purified
Kd for assorted binders

binder: mAb03 (analog of tislelizumab) (antibody, V domains shown, VH; IgG4 heavy-chain constant region with stabilizing 226CPPC hinge; VL; IgG4 analog; source: HEK293 suspension cells, cotransfected, purified (Protein A)) VH: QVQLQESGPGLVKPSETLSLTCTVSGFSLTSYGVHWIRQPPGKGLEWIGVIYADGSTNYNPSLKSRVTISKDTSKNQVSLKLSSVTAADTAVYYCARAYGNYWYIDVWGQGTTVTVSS VL: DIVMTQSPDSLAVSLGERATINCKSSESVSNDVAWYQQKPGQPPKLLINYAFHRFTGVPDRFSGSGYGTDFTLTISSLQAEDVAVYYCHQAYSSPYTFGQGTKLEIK
unit-label: nM
value-relation-sign: =
Kd: 0.26
//
binder: mAb16 (analog of dostarlimab) (antibody, V domains shown, VH; IgG4 heavy-chain constant region with stabilizing 226CPPC hinge; VL; IgG4 analog; source: HEK293 suspension cells, cotransfected, purified (Protein A)) VH: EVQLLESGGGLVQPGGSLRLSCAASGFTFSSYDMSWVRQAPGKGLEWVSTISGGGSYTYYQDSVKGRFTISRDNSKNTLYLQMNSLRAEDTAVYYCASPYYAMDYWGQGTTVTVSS VL: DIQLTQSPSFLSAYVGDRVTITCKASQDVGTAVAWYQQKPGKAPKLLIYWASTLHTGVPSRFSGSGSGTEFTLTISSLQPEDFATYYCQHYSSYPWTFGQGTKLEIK
unit-label: nM
value-relation-sign: =
Kd: 1.7
//
binder: mAb21 (analog of sintilimab) (antibody, V domains shown, VH; IgG4 heavy-chain constant region with stabilizing 226CPPC hinge; VL; IgG4 analog; source: HEK293 suspension cells, cotransfected, purified (Protein A)) VH: QVQLVQSGAEVKKPGSSVKVSCKASGGTFSSYAISWVRQAPGQGLEWMGLIIPMFDTAGYAQKFQGRVAITVDESTSTAYMELSSLRSEDTAVYYCARAEHSSTGTFDYWGQGTLVTVSS VL: DIQMTQSPSSVSASVGDRVTITCRASQGISSWLAWYQQKPGKAPKLLISAASSLQSGVPSRFSGSGSGTDFTLTISSLQPEDFATYYCQQANHLPFTFGGGTKVEIK
unit-label: nM
value-relation-sign: <
Kd: 0.21
//
binder: mAb17 (analog of camrelizumab) (antibody, V domains shown, VH; IgG4 heavy-chain constant region with stabilizing 226CPPC hinge; VL; IgG4 analog; source: HEK293 suspension cells, cotransfected, purified (Protein A)) VH: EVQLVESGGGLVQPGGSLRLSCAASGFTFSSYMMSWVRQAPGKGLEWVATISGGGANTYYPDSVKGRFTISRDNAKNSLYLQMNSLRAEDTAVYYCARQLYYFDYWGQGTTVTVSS VL: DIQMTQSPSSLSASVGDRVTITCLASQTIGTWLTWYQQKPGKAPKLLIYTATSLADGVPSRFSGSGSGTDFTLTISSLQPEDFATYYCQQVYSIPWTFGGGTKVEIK
unit-label: nM
value-relation-sign: =
Kd: 4.5
//
binder: mAb04 (analog of retifanlimab) (antibody, V domains shown, VH; IgG4 heavy-chain constant region with stabilizing 226CPPC hinge; VL; IgG4 analog; source: HEK293 suspension cells, cotransfected, purified (Protein A)) VH: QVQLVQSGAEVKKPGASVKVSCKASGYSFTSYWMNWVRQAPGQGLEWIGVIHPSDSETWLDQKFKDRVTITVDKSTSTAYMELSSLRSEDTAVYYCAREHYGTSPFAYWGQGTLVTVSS VL: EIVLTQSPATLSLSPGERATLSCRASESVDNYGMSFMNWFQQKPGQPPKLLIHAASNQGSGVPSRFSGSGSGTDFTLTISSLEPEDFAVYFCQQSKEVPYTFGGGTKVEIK
unit-label: nM
value-relation-sign: =
Kd: 0.65
//
binder: mAb23 (analog of cemiplimab) (antibody, V domains shown, VH; IgG4 heavy-chain constant region with stabilizing 226CPPC hinge; VL; IgG4 analog; source: HEK293 suspension cells, cotransfected, purified (Protein A)) VH: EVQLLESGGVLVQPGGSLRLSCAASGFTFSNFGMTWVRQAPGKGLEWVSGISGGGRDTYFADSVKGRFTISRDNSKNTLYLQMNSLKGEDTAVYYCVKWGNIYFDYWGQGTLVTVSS VL: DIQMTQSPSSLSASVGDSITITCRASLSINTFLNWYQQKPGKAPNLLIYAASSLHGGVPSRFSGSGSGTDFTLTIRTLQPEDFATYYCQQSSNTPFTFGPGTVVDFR
unit-label: nM
value-relation-sign: =
Kd: 1.9
//
binder: mAb19 (analog of sasanlimab) (antibody, V domains shown, VH; IgG4 heavy-chain constant region with stabilizing 226CPPC hinge; VL; IgG4 analog; source: HEK293 suspension cells, cotransfected, purified (Protein A)) VH: QVQLVQSGAEVKKPGASVKVSCKASGYTFTSYWINWVRQAPGQGLEWMGNIYPGSSLTNYNEKFKNRVTMTRDTSTSTVYMELSSLRSEDTAVYYCARLSTGTFAYWGQGTLVTVSS VL: DIVMTQSPDSLAVSLGERATINCKSSQSLWDSGNQKNFLTWYQQKPGQPPKLLIYWTSYRESGVPDRFSGSGSGTDFTLTISSLQAEDVAVYYCQNDYFYPHTFGGGTKVEIK
unit-label: nM
value-relation-sign: <
Kd: 0.3

Just for reference, paper PMC7058304 is where these values come from.
